Assign combination Emax to each entry below.
test system: LNCaP-Clone-FGC (Prostate Carcinoma); test: combination Emax (second highest fraction inhibited in the dose matrix, 72 h); higher = more inhibition; extreme values may be limits of the assay
When you answer, write just the number.

Ask: Look up and state reported combination Emax for C=CCn1c(=O)c2cnc(Nc3ccc(N4CCN(C)CC4)cc3)nc2n1-c1cccc(C(C)(C)O)n1 [AZD1775] + C[C@@H]1COCCN1C2=NC(=NC(=C2)C3(CC3)[S@](=N)(=O)C)C4=C5C=CNC5=NC=C4 [AZD6738] (first compound max 1 µM, partner max 10 µM)
Result: 0.787

Ask: Look up and state reported combination Emax for COc1cc2c(cc1OCCCCCOc1cc3c(cc1OC)C(=O)N1C=C(C)C[C@H]1C=N3)N=C[C@@H]1CC(C)=CN1C2=O [SG3199] + O=C(c1cc(Cc2n[nH]c(=O)c3ccccc23)ccc1F)N1CCN(C(=O)C2CC2)CC1 [Olaparib] (first compound max 0.001 µM, 7x7, partner max 10 µM)
Result: 0.416

====

test system: NCI-H82 (Small Cell Lung Carcinoma); assay: Bliss excess, mean over the matrix (fraction); higher = more synergy;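 further: after 72 h of two-drug dosing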
OBSERVATION TYPE: Bliss excess
When you answer, write just the number.

Ask: Look up and state reported Bliss excess for C[C@@H]1COCCN1c1cc(C2([S@](C)(=N)=O)CC2)nc(-c2ccnc3[nH]ccc23)n1 [AZD6738] + O=C(c1cc(Cc2n[nH]c(=O)c3ccccc23)ccc1F)N1CCN(C(=O)C2CC2)CC1 [Olaparib] (first compound max 10 µM, 7x7, partner max 10 µM)
Result: -0.0194

Ask: Look up and state reported Bliss excess for C[C@@H](Oc1cc(-c2cnn(C3CCNCC3)c2)cnc1N)c1c(Cl)ccc(F)c1Cl [Crizotinib] + Cn1cnc2c(F)c(Nc3ccc(Br)cc3Cl)c(C(=O)NOCCO)cc21 [Selumetinib] (first compound max 10 µM, 7x7, partner max 10 µM)
Result: -0.0702

Ask: Look up and state reported Bliss excess for CC1(C)CCC(CN2CCN(c3ccc(C(=O)NS(=O)(=O)c4ccc(NCC5CCOCC5)c([N+](=O)[O-])c4)c(Oc4cnc5[nH]ccc5c4)c3)CC2)=C(c2ccc(Cl)cc2)C1 [Venetoclax] + C[C@@H]1COCCN1C2=NC(=NC(=C2)C3(CC3)[S@](=N)(=O)C)C4=C5C=CNC5=NC=C4 [AZD6738] (first compound max 1 µM, 7x7, partner max 10 µM)
Result: 0.0098

Ask: Look up and state reported Bliss excess for COc1cc2ncnc(Nc3ccc(F)c(Cl)c3)c2cc1OCCCN1CCOCC1 [Gefitinib] + CC(C)n1c(=O)n(C)c2cnc3cc(F)c(-c4ccc(OCCCN5CCCCC5)nc4)cc3c21 [AZD1390] (first compound max 10 µM, 7x7, partner max 0.3 µM)
Result: -0.0088

Ask: Look up and state reported Bliss excess for CN(CCO)CC[C@H](CSc1ccccc1)Nc1ccc(S(=O)(=O)NC(=O)c2ccc(N3CCC([C@@H](O)c4ccccc4-c4ccc(Cl)cc4)CC3)cc2)cc1S(=O)(=O)C(F)(F)F [AZD4320] + CN(C)CCCOc1ccc(-c2ccc3ncc4c(c3c2)n(C2CCOCC2)c(=O)n4C)cn1 [AZD0156] (first compound max 1 µM, 7x7, partner max 1 µM)
Result: 0.012

Ask: Look up and state reported Bliss excess for C=CCn1c(=O)c2cnc(Nc3ccc(N4CCN(C)CC4)cc3)nc2n1-c1cccc(C(C)(C)O)n1 [AZD1775] + CCc1c2c(nc3ccc(O)cc13)-c1cc3c(c(=O)n1C2)COC(=O)[C@]3(O)CC [SN-38] (first compound max 1 µM, partner max 0.3 µM)
Result: -0.0569

Ask: Look up and state reported Bliss excess for Cc1c2c(nn1C)CSCc1cc(n(C)n1)CSc1cc(c3ccccc3c1)OCCCc1c(C(=O)O)n(C)c3c-2c(Cl)ccc13 [AZD5991] + CCN(CCO)CCCOc1ccc2c(Nc3cc(CC(=O)Nc4cccc(F)c4)[nH]n3)ncnc2c1 [AZD2811] (first compound max 1 µM, 7x7, partner max 1 µM)
Result: 0.103

Ask: Look up and state reported Bliss excess for NC1(C(=O)N[C@@H](CCO)c2ccc(Cl)cc2)CCN(c2ncnc3[nH]ccc23)CC1 [Capivasertib] + CC(C)n1c(=O)n(C)c2cnc3cc(F)c(-c4ccc(OCCCN5CCCCC5)nc4)cc3c21 [AZD1390] (first compound max 10 µM, 7x7, partner max 0.3 µM)
Result: 0.0005

Ask: Look up and state reported Bliss excess for CC(=O)c1c(C)c2cnc(Nc3ccc(N4CCNCC4)cn3)nc2n(C2CCCC2)c1=O [Palbociclib] + CC1(C)CCC(CN2CCN(c3ccc(C(=O)NS(=O)(=O)c4ccc(NCC5CCOCC5)c([N+](=O)[O-])c4)c(Oc4cnc5[nH]ccc5c4)c3)CC2)=C(c2ccc(Cl)cc2)C1 [Venetoclax] (first compound max 10 µM, 7x7, partner max 1 µM)
Result: -0.0648

====

Assign combination Emax to each entry below.
tested on: TCCSUP (Bladder Carcinoma); test: combination Emax (second highest fraction inhibited in the dose matrix, 72 h); higher = more inhibition; extreme values may be limits of the assay

Ask: Look up and state reported combination Emax for NC1(C(=O)N[C@@H](CCO)c2ccc(Cl)cc2)CCN(c2ncnc3[nH]ccc23)CC1 [Capivasertib] + CCN(CCO)CCCOc1ccc2c(Nc3cc(CC(=O)Nc4cccc(F)c4)[nH]n3)ncnc2c1 [AZD2811] (first compound max 10 µM, 7x7, partner max 1 µM)
Result: 0.389

Ask: Look up and state reported combination Emax for COc1cccc(OCCCN)c1-c1cc(Nc2cnc(C#N)cn2)n[nH]1 [Prexasertib] + C=CCn1c(=O)c2cnc(Nc3ccc(N4CCN(C)CC4)cc3)nc2n1-c1cccc(C(C)(C)O)n1 [AZD1775] (first compound max 1 µM, partner max 1 µM)
Result: 0.748

====

system: DoTc2-4510 (Cervical Carcinoma); experiment: combination Emax (second highest fraction inhibited in the dose matrix, 72 h); higher = more inhibition; extreme values may be limits of the assay
Assign combination Emax to each entry below.
When you answer, write just the number.

Ask: Specify combination Emax for NC1(C(=O)N[C@@H](CCO)c2ccc(Cl)cc2)CCN(c2ncnc3[nH]ccc23)CC1 [Capivasertib] + Cn1cnc2c(F)c(Nc3ccc(Br)cc3Cl)c(C(=O)NOCCO)cc21 [Selumetinib] (first compound max 10 µM, 7x7, partner max 10 µM) , system DoTc2-4510 (Cervical Carcinoma).
Result: 0.408

Ask: Specify combination Emax for Cc1c2c(nn1C)CSCc1cc(n(C)n1)CSc1cc(c3ccccc3c1)OCCCc1c(C(=O)O)n(C)c3c-2c(Cl)ccc13 [AZD5991] + C[C@@H]1COCCN1C2=NC(=NC(=C2)C3(CC3)[S@](=N)(=O)C)C4=C5C=CNC5=NC=C4 [AZD6738] (first compound max 1 µM, 7x7, partner max 10 µM) , system DoTc2-4510 (Cervical Carcinoma).
Result: 0.677

Ask: Specify combination Emax for CC1(C)CCC(CN2CCN(c3ccc(C(=O)NS(=O)(=O)c4ccc(NCC5CCOCC5)c([N+](=O)[O-])c4)c(Oc4cnc5[nH]ccc5c4)c3)CC2)=C(c2ccc(Cl)cc2)C1 [Venetoclax] + CN(C)CCCOc1ccc(-c2ccc3ncc4c(c3c2)n(C2CCOCC2)c(=O)n4C)cn1 [AZD0156] (first compound max 1 µM, 7x7, partner max 1 µM) , system DoTc2-4510 (Cervical Carcinoma).
Result: 0.268

Ask: Specify combination Emax for Cn1cnc2c(F)c(Nc3ccc(Br)cc3Cl)c(C(=O)NOCCO)cc21 [Selumetinib] + C[C@@H]1COCCN1C2=NC(=NC(=C2)C3(CC3)[S@](=N)(=O)C)C4=C5C=CNC5=NC=C4 [AZD6738] (first compound max 10 µM, 7x7, partner max 10 µM) , system DoTc2-4510 (Cervical Carcinoma).
Result: 0.392

====

tested on: HO-1-N-1 (Oral Cavity Carcinoma); experiment: combination Emax (second highest fraction inhibited in the dose matrix, 72 h); higher = more inhibition; extreme values may be limits of the assay
OBSERVATION TYPE: combination Emax
When you answer, write just the number.

Ask: Look up and state reported combination Emax for COc1nnc2ccc(N3CCC(c4ccc(OCCN5CCN(C)C(=O)[C@H]5C)cc4)CC3)nn12 [AZD5153] + CC1(C)CCC(CN2CCN(c3ccc(C(=O)NS(=O)(=O)c4ccc(NCC5CCOCC5)c([N+](=O)[O-])c4)c(Oc4cnc5[nH]ccc5c4)c3)CC2)=C(c2ccc(Cl)cc2)C1 [Venetoclax] (first compound max 1 µM, 7x7, partner max 1 µM)
Result: 0.682

Ask: Look up and state reported combination Emax for Cc1nc(-c2cn3c(n2)-c2ccc(-c4cnn(C(C)(C)C(N)=O)c4)cc2OCC3)n(C(C)C)n1 [Taselisib] + O=C(Nc1ccc2[nH]nc(-c3ccncc3)c2c1)[C@@H]1CCN(CC(=O)N2CCN(c3ccc(-c4ncccn4)cc3)CC2)C1 [SCH772984] (first compound max 10 µM, 7x7, partner max 5 µM)
Result: 0.999

Ask: Look up and state reported combination Emax for COc1cccc(OCCCN)c1-c1cc(Nc2cnc(C#N)cn2)n[nH]1 [Prexasertib] + O=C(c1cc(Cc2n[nH]c(=O)c3ccccc23)ccc1F)N1CCN(C(=O)C2CC2)CC1 [Olaparib] (first compound max 1 µM, 7x7, partner max 10 µM)
Result: 0.938

Ask: Look up and state reported combination Emax for CN(CCO)CC[C@H](CSc1ccccc1)Nc1ccc(S(=O)(=O)NC(=O)c2ccc(N3CCC([C@@H](O)c4ccccc4-c4ccc(Cl)cc4)CC3)cc2)cc1S(=O)(=O)C(F)(F)F [AZD4320] + CC(=O)O[C@H]1C(=O)[C@@]2(C)[C@H]([C@H](OC(=O)c3ccccc3)[C@]3(O)C[C@H](OC(=O)[C@H](O)[C@@H](NC(=O)c4ccccc4)c4ccccc4)C(C)=C1C3(C)C)[C@]1(OC(C)=O)CO[C@@H]1C[C@@H]2O [Paclitaxel] (first compound max 1 µM, 7x7, partner max 3 µM)
Result: 1

Ask: Look up and state reported combination Emax for C=CCn1c(=O)c2cnc(Nc3ccc(N4CCN(C)CC4)cc3)nc2n1-c1cccc(C(C)(C)O)n1 [AZD1775] + O=C(c1cc(Cc2n[nH]c(=O)c3ccccc23)ccc1F)N1CCN(C(=O)C2CC2)CC1 [Olaparib] (first compound max 1 µM, partner max 10 µM)
Result: 0.437

Ask: Look up and state reported combination Emax for COc1cc2ncnc(Nc3ccc(F)c(Cl)c3)c2cc1OCCCN1CCOCC1 [Gefitinib] + CC(C)n1c(=O)n(C)c2cnc3cc(F)c(-c4ccc(OCCCN5CCCCC5)nc4)cc3c21 [AZD1390] (first compound max 10 µM, 7x7, partner max 0.3 µM)
Result: 0.568
